Test: Therapeutic index, ratio of CC50 for human C8166 cells to EC50 for HIV1
Assay type: cell-based
Conditions: read-out: Ratio CC50/EC50
Reported selectivity ratio is given for each of the following compounds.

Guide cases for selectivity ratio, answers given:
Cc1cn([C@H]2C[C@H](N=[N+]=[N-])[C@@H](CO)O2)c(=O)[nH]c1=O [ZIDOVUDINE]
> 5880
COc1cc(CC(C)=O)c2c(=O)cc(CCCOC(C)=O)oc2c1 [SIAMCHROMONES D]
> 107

In: # input compound: "CC1(C)Oc2cc3oc(CO)cc(=O)c3c(O)c2C[C@@H]1O[C@@H]1O[C@H](CO)[C@@H](O)[C@H](O)[C@H]1O" ; wanted: its selectivity ratio
Out: > 109

In: Find the recorded selectivity ratio belonging to COc1cc2c(c3oc(CCCO)cc(=O)c13)C=CC(C)(C)O2 [SIAMCHROMONES G] and report it.
Out: > 23.6

Reference source: ChEMBL document CHEMBL2163211
